Target: Hsp90 (Homo sapiens)
Construct: purchased Stressgen SPP-776
Assay: Fluorescence Polarization (FP) binding, GM-BODIPY displacement from Hsp90
Settings: GM-BODIPY tracer, 4° C. for 4 hours
Attribute Measured: IC50

compound=CCNC(=O)c1nnn(-c2cc(C(C)C)c(O)cc2O)c1-c1ccc(CN(CC)CCO)cc1 attribute_measured=IC50 observed_value="< 50 nM"
compound=CCNC(=O)c1nnn(-c2cc(C(C)C)c(O)cc2O)c1-c1ccc(CN2CCCCC2)cc1 attribute_measured=IC50 observed_value="< 50 nM"
compound=CC(C)c1cc(-n2nncc2-c2ccc(CN3CCN(c4ccccc4)CC3)cc2)c(O)cc1O attribute_measured=IC50 observed_value="< 50 nM"
compound=CC(C)c1cc(-n2nnc(C(=O)NC3CCCC3)c2-c2ccc(CN3CCOCC3)cc2)c(O)cc1O attribute_measured=IC50 observed_value="< 50 nM"
compound=CC(C)c1cc(-n2nncc2NCc2ccc(N3CCOCC3)cc2)c(O)cc1O attribute_measured=IC50 observed_value="100 to 500 nM"

**Q:** Provide measured IC50 value, entry: CCNC(=O)c1nnn(-c2cc(C(C)C)c(O)cc2O)c1-c1ccc(CN2CCN(C)CC2)cc1
**A:** < 50 nM

**Q:** Provide measured IC50 value, entry: CCCCCCNC(=O)c1nnn(-c2cc(C(C)C)c(O)cc2O)c1-c1ccc(CN2CCOCC2)cc1
**A:** < 50 nM
